target: Neuropeptide S receptor (Homo sapiens) (UniProt Q6W5P4); assay: qHTS Assay for Antagonists of the Neuropeptide S Receptor: cAMP Signal Transduction; settings: CHO-NPSR cells, cAMP TR-FRET, antagonist mode; series mostly up to 38.3 µM; further: nearly all actives have a fitted effect of over 50% in size
Sequence (Q6W5P4 whole entry, looked up): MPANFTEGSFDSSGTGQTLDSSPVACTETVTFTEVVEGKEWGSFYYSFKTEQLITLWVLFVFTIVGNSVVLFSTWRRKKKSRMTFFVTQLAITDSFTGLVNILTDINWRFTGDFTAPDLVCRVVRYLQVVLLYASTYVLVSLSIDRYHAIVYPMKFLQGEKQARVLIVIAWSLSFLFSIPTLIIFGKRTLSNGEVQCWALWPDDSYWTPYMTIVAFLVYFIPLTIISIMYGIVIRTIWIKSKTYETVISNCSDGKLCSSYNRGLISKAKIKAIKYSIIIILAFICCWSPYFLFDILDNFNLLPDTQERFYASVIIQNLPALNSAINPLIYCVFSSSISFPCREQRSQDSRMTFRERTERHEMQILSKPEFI
The campaign covered roughly 220,000 compounds. About 2,300 (1%) were called active. Roughly 6% stayed inconclusive and do not appear here. The call rests on the fitted dose curve; in most records, active means well fitted inhibition curve with a large enough effect; inconclusive means small, poorly fitted or top-dose-only effect, or effect the other way; inactive means no such curve, though single readings can be large or run the other way. Shown is part of a subset that was picked to be rich in actives.
I would appreciate it if you answered using one of these outcomes: true (1) (active), false (0) (inactive)

| Molecule | Tgt | Class Label |
| --- | --- | --- |
| COc1ccc(C2/C(=C(/O)c3ccccc3)C(=O)C(=O)N2c2ncccn2)cc1OC (stereo unspecified) | Neuropeptide S receptor (Homo sapiens) (UniProt Q6W5P4) | false (0) |
| CC[C@@H](C)[C@@H](C(=O)N1CCN(C(=O)OC(C)(C)C)CC1)n1cc(CCC(=O)O)nn1 | Neuropeptide S receptor (Homo sapiens) (UniProt Q6W5P4) | false (0) |
| Cc1cc(N2C(=O)C(=O)/C(=C(/O)c3ccc(Cl)cc3)C2c2cccc(Br)c2)no1 (stereo unspecified) | Neuropeptide S receptor (Homo sapiens) (UniProt Q6W5P4) | true (1) |
| CC(C)n1c(CN2CCN(Cc3ccccc3)CC2)nc2ccccc21 | Neuropeptide S receptor (Homo sapiens) (UniProt Q6W5P4) | false (0) |
| Cc1ccc(C(=O)CS(C)(=O)=O)cc1 | Neuropeptide S receptor (Homo sapiens) (UniProt Q6W5P4) | false (0) |

// query Would you mind telling me which call this test gave Cc1ccc(SC(CC(=O)c2ccc(C(C)(C)C)cc2)C(=O)O)cc1 (stereo unspecified) ?
// result true (1)
